# system: T1, EsCas13d, nuclease-dead (Eubacterium siraeum, UniProt B0MS50, R295A;H300A;R849A;H854A)
# T1 sequence: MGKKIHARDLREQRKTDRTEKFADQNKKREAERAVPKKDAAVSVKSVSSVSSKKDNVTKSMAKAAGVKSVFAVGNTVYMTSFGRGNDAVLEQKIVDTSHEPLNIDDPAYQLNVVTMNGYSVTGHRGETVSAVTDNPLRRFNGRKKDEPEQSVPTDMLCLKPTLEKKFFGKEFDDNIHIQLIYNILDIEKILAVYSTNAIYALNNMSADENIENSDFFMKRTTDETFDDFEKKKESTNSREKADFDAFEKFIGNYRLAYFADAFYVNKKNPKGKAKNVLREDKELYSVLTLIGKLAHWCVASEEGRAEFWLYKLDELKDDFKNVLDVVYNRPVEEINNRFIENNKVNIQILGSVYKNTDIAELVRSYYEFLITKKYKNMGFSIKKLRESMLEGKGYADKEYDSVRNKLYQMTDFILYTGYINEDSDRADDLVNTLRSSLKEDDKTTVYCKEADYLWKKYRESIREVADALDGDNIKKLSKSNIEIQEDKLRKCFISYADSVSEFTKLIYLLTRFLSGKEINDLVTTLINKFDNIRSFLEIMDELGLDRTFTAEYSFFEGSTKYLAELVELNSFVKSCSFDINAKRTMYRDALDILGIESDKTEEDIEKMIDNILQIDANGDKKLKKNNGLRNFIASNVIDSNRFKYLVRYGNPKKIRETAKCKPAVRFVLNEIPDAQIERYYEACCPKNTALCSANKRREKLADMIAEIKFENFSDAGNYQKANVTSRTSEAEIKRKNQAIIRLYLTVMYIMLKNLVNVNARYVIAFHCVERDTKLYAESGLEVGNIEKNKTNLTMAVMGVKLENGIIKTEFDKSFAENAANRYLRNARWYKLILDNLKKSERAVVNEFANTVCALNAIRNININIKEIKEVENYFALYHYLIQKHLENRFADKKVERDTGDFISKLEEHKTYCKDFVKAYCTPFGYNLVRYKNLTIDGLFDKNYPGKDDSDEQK
# assay overview: crRNA (strand 1, pre-loaded); Mg2+; 40 mM Tris-HCl pH 7.5, 150 mM NaCl, 6 mM MgCl2, 1 mM DTT, 0.1% Tween-20, 0.2 mg/ml BSA; 25 C; 10 min per concentration, then washed
# cond: tags: His6-TwinStrep-SUMO cleaved; N-terminal SNAP kept (SNAP-Surface 488); label: 3' end held by stalled T7 RNA polymerase
value type: pKd
// pKd: -log10(molar conc.)

* target 3 insU 3' of 18,insC 3' of 11 (mixed) RNA 1: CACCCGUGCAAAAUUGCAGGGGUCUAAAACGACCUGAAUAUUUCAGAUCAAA RNA 2: GGGAAUGGAUCCACAUCUACGAAUUCGUUUUUGAUUCUGAAACUAUUCAGGUCUGCAGAUCGGAAGAGCACACGU | 7.31

Shift focus to the following entry.
Note to self: pKd recorded for target 2 MT 5'PFS UGC 3'PFS AAG (mixed) RNA 1: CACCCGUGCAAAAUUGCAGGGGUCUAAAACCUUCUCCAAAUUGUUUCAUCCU RNA 2: GGGAAUGGAUCCACAUCUACGAAUUCUGCAGGAUGAAACAAUUUGGAGAAGAAGAGAUCGGAAGAGCACACGU was 7.82
